# assayedTarget: UniProt:P10415
# Sequence (P10415 whole entry): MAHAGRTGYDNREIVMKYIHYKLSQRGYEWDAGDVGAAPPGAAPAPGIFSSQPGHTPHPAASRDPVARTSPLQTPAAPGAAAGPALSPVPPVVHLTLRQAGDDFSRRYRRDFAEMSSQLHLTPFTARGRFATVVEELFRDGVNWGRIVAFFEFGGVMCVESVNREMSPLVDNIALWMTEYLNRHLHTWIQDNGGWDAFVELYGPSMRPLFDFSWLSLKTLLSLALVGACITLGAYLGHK
# testDetails: Time Resolved-Fluorescence Resonance Energy Transfer (TR-FRET) Bcl-2 binding assay
# testConditions: GST-Bcl-2 1 nM, F-Bak peptide probe 100 nM, Tb-anti-GST 1 nM; 3 hours at room temperature; Ki by Wang's equation
The entries below are paired with their reported pKi.
By convention, pKi is the negative base-10 log of a molar concentration.

The cases that follow already have their pKi on record.
[[record]]
linenotation = "O=C(NS(=O)(=O)c1cccc([N+](=O)[O-])c1)c1ccc(N2CCN(Cc3ccccc3-c3ccc(Cl)cc3)CC2)cc1Sc1ccccc1"
value = 7.14

[[record]]
linenotation = "O=C(NS(=O)(=O)c1cccc([N+](=O)[O-])c1)c1ccc(N2CCN(Cc3ccccc3-c3ccc(Cl)cc3)CC2)cc1S(=O)(=O)c1ccccc1"
value = 6.20


Given the compound CN(C)CCOc1cccc(-c2ccc(Cl)cc2)c1CN1CCN(c2ccc(C(=O)NS(=O)(=O)c3ccccc3)c(Oc3cccc4[nH]ccc34)c2)CC1 , what is its reported pKi?
8.64
